- study_target: human FAAH (Homo sapiens)
- Construct: host or cells: COS-7 cells, transient transfection; 13,000 g membrane fraction solubilised in 1% Triton X-100
- Sequence (O00519 whole entry): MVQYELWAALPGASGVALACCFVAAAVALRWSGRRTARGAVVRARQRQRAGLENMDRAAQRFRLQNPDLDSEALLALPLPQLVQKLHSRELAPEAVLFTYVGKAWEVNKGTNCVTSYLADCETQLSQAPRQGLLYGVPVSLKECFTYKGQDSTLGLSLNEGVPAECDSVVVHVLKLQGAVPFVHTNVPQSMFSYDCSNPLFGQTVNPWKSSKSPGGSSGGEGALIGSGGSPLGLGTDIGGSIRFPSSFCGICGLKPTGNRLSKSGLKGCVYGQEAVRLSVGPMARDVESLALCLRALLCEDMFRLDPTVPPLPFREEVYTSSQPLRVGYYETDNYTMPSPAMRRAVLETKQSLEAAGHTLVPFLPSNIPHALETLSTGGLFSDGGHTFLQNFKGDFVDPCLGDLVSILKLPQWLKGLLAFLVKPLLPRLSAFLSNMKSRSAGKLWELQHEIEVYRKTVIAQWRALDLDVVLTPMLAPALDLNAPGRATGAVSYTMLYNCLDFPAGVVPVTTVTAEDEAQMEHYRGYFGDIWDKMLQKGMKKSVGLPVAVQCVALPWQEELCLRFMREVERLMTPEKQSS
- assay_info: Human FAAH biochemical inhibition assay (AMC arachidonoyl amide fluorescence)
- condition_parameters: Table 2, human FAAH (no asterisk); read-out: Activity (Ki)
Ki values, listed per item

molecule: OB(O)c1ccc(Oc2cccc(OC(F)(F)F)c2)cc1F [II-212]
study_target: human FAAH (Homo sapiens)
observed_property: Ki
val: < 10 nM

molecule: [O-][S+](Cc1ccccc1)Cc1ccc(B(O)O)c(F)c1 (centres unmarked) [II-81]
study_target: human FAAH (Homo sapiens)
observed_property: Ki
val: 10 to 1000 nM

molecule: [O-][S+](Cc1ccccc1)c1ccc(B(O)O)cc1 (centres unmarked) [II-233]
study_target: human FAAH (Homo sapiens)
observed_property: Ki
val: 10 to 100 nM

molecule: Cc1cc(Oc2ccc(B(O)O)cc2)ccc1F [II-253]
study_target: human FAAH (Homo sapiens)
observed_property: Ki
val: < 10 nM

// next entry
Recorded Ki for CC(C)(C)OC(=O)Nc1ccc(Oc2ccc(B(O)O)cc2)cc1 [II-288] , please?
10 to 100 nM
